- PROCEDURE TEXT: Luminescence activity assay of purified Gaussia luciferase mutants on fluoro-coelenterazine
- Type: biochemical
- Parameters: key: ratio of mutant luminescence intensity to wild-type Gaussia luciferase
- CONDITION NOTES: Substrate f-CTZ (Table 16)
Please respond with reported Activity of mutant relative to wild-type Gaussia luciferase without the signal peptide for every item in the list.
Kindly provide the number alone.

So, F26G N27D V29L A30V V31I A32G S33D A36W T37S: Gaussia luciferase mutant (protein, SIGNAL (1)..(17), Gaussia luciferase mutant) MGVKVLFALICIAVAEAKPTENNEDGDILVIGDNFWSTDLDADRGKLPGKKLPLEVLKEMEANARKAGCTRGCLICLSHIKCTPKMKKFIPGRCHTYEGDKESAQGGIGEAIVDIPEIPGFKDLEPMEQFIAQVDLCVDCTTGCLKGLANVQCSDLLKKWLPQRCATFASKIQGQVDKIKGAGGD ? Its Activity of mutant relative to wild-type Gaussia luciferase without the signal peptide was 0.040

So, Q152K Q163S T167S S170N G174N K178S A182Y G183A: Gaussia luciferase mutant (protein, SIGNAL (1)..(17), Gaussia luciferase mutant) MGVKVLFALICIAVAEAKPTENNEDFNIVAVASNFATTDLDADRGKLPGKKLPLEVLKEMEANARKAGCTRGCLICLSHIKCTPKMKKFIPGRCHTYEGDKESAQGGIGEAIVDIPEIPGFKDLEPMEQFIAQVDLCVDCTTGCLKGLANVKCSDLLKKWLPSRCASFANKIQNQVDSIKGYAGD ? Its Activity of mutant relative to wild-type Gaussia luciferase without the signal peptide was 1.175

So, K66N H79K P84A E102E S103I D123N L124M V138E K159N I179*: Gaussia luciferase mutant (protein, SIGNAL (1)..(17), Gaussia luciferase mutant) MGVKVLFALICIAVAEAKPTENNEDFNIVAVASNFATTDLDADRGKLPGKKLPLEVLKEMEANARNAGCTRGCLICLSKIKCTAKMKKFIPGRCHTYEGDKEIAQGGIGEAIVDIPEIPGFKNMEPMEQFIAQVDLCEDCTTGCLKGLANVQCSDLLKNWLPQRCATFASKIQGQVDKKGAGGD ? Its Activity of mutant relative to wild-type Gaussia luciferase without the signal peptide was 0.009

So, F26C N27D A30D A32V S33R A36T: Gaussia luciferase mutant (protein, SIGNAL (1)..(17), Gaussia luciferase mutant) MGVKVLFALICIAVAEAKPTENNEDCDIVDVVRNFTTTDLDADRGKLPGKKLPLEVLKEMEANARKAGCTRGCLICLSHIKCTPKMKKFIPGRCHTYEGDKESAQGGIGEAIVDIPEIPGFKDLEPMEQFIAQVDLCVDCTTGCLKGLANVQCSDLLKKWLPQRCATFASKIQGQVDKIKGAGGD ? Its Activity of mutant relative to wild-type Gaussia luciferase without the signal peptide was 0.130

So, P84K E102K S103I E110P L124M V138D: Gaussia luciferase mutant (protein, SIGNAL (1)..(17), Gaussia luciferase mutant) MGVKVLFALICIAVAEAKPTENNEDFNIVAVASNFATTDLDADRGKLPGKKLPLEVLKEMEANARKAGCTRGCLICLSHIKCTKKMKKFIPGRCHTYEGDKKIAQGGIGPAIVDIPEIPGFKDMEPMEQFIAQVDLCDDCTTGCLKGLANVQCSDLLKKWLPQRCATFASKIQGQVDKIKGAGGD ? Its Activity of mutant relative to wild-type Gaussia luciferase without the signal peptide was 3.010

Reference source for all entries: patent US20250066745A1
